Would you kindly list IC50 for each of these compounds?
Biological target: BEC 1 potassium channel (Homo sapiens)
Construct: expressed in transfected cells
Assay: BEC 1 inhibitory activity using released amount of 86Rb ions from BEC 1-expressing cells
Assay type: cell-based
Conditions: 86Rb ion release, BEC 1-stably expressing CHO (dhfr-deficient) cell, 100 mM KCl stimulation; read-out: BEC1 IC50
Answers are plain numbers, in nM.

See these solved cases before continuing.
OCCCCCNc1nc(Nc2ccc(F)cc2)nc(Nc2ccc(F)cc2)n1: 260
CN(C)Nc1nc(Nc2ccccc2)nc(Nc2ccc(F)cc2)n1: 2200
C[C@H](CO)Nc1nc(Nc2ccccc2)nc(Nc2ccc(F)cc2)n1: 700
OCCCCNc1nc(Nc2ccccc2)nc(Nc2ccc(F)cc2)n1: 110

Dear colleague, could you send me IC50 for each of the items below? Thanks.
1. c1ccc(Nc2nc(NCc3ccncc3)nc(Nc3ccccc3)n2)cc1
2. Fc1ccc(CNc2nc(Nc3ccc(F)cc3)nc(Nc3ccc(F)cc3)n2)cc1
3. OCCCNc1nc(Nc2ccccc2)nc(Nc2ccccc2)n1

1. 84
2. 350
3. 590

Dear colleague, could you send me IC50 for each of the items below? Thanks.
1. COCCCNc1nc(Nc2ccccc2)nc(Nc2ccccc2)n1
2. OCCCCCNc1nc(Nc2ccccc2)nc(Nc2ccc(F)cc2)n1

1. 1100
2. 140

----------
Target: BEC 1 potassium channel (Homo sapiens)
Assay: BEC 1 inhibitory activity using released amount of 86Rb ions from BEC 1-expressing cells
Details: 86Rb ion release, BEC 1-stably expressing CHO (dhfr-deficient) cell, 100 mM KCl stimulation; read-out: BEC1 IC50
Excerpt: In general, the potassium channel can pass Rb^+ ion similar to K^+ ion, so that the channel activity can be measured using release of a radioisotope ^86Rb^+ as a marker. […] As a result, the intracellular ^86Rb^+ is released into the extracellular part, thus radioactivity of the extracellular solution can be used as a marker of the channel activity. […] The Cerenkov radioactivity of the extracellular medium and cell lysate was respectively measured, and their total was used as the total radioactivity. […]
Classes by IC50: category 1 (below 0.2 µM), category 2 (0.2 µM to below 0.5 µM), category 3 (0.5 µM or more)

Cc1ccc(Nc2nc(Nc3ccccc3)nc(NC(C)C)n2)cc1 [Ex 47]: category 3
COc1cccc(Nc2nc(Nc3cccc(OC)c3)nc(NC(C)C)n2)c1 [compound 40]: category 3
O=C1OCCC1CNc1nc(Nc2ccccc2)nc(Nc2ccccc2)n1 (stereo not drawn) [compound 24]: category 2
COc1ccc(Nc2nc(Nc3ccccc3)nc(NC(C)C)n2)cc1 [Ex 48]: category 2

Which bin, given its IC50, does OCCOCCNc1nc(Nc2ccccc2)nc(Nc2ccccc2)n1 [compound 23] occupy?
category 2

----------
Counter-ions that a name gives are not always drawn.
value_type: melting point

[O-][n+]1ccc(CCNc2nc(Nc3ccccc3)nc(Nc3ccccc3)n2)cc1 (as salt: salt) (hydrate or solvate): 161 to 162 °C
COc1cccc(Nc2nc(Nc3cccc(OC)c3)nc(NC(C)C)n2)c1 (as salt: HCl): 180 to 182 °C
Cc1ccc(Nc2nc(Nc3ccccc3)nc(NC(C)C)n2)cc1 (as salt: HCl): 194 to 195 °C
OCCOCCNc1nc(Nc2ccccc2)nc(Nc2ccccc2)n1 (as salt: HCl): 167 to 169 °C
OCCOCCNc1nc(Nc2ccc(F)cc2)nc(Nc2ccc(F)cc2)n1 (as salt: HCl): 151 to 152 °C
CN(C)Nc1nc(Nc2ccccc2)nc(Nc2ccc(F)cc2)n1 (as salt: HCl): 154 to 156 °C
CC(C)Nc1nc(Nc2ccccc2)nc(Nc2ccc(Cl)cc2)n1 (as salt: HCl): 201 to 203 °C
Fc1ccc(Nc2nc(NCc3ccco3)nc(Nc3ccccc3)n2)cc1 (hydrate or solvate): 144 to 148 °C
OCCCCCNc1nc(Nc2ccccc2)nc(Nc2ccccc2)n1: 118 to 119 °C
Fc1ccc(CNc2nc(Nc3ccc(F)cc3)nc(Nc3ccc(F)cc3)n2)cc1 (as salt: HCl): 166 to 167 °C

Dear colleague, could you send me melting point for each of the items below? Thanks.
1. CC(CCCC(C)(C)O)Nc1nc(Nc2ccccc2)nc(Nc2ccccc2)n1 (stereo not shown) (as salt: HCl)
2. CCN(CC)CCCC(C)Nc1nc(Nc2ccccc2)nc(Nc2ccc(F)cc2)n1 (stereo not shown) (hydrate or solvate)
3. CC(C)Nc1nc(Nc2ccccc2)nc(Nc2ccc(F)cc2)n1.Cl
4. COc1ccc(Nc2nc(Nc3ccccc3)nc(NC(C)C)n2)cc1 (as salt: HCl) (hydrate or solvate)
5. CONc1nc(Nc2ccccc2)nc(Nc2ccc(F)cc2)n1 (as salt: HCl) (hydrate or solvate)

1: 112 to 113 °C; 2: 184 to 187 °C; 3: 205 to 206 °C; 4: 174 to 177 °C; 5: 140 to 141 °C

Dear colleague, could you send me melting point for each of the items below? Thanks.
1. Fc1ccc(Nc2nc(NCc3ccnc(F)c3)nc(Nc3ccc(Cl)cc3)n2)cc1 (as salt: HCl)
2. Fc1ccc(Nc2nc(NCC3CCCO3)nc(Nc3ccc(F)cc3)n2)cc1 (stereo not shown) (as salt: HCl) (hydrate or solvate)
3. OCCCNc1nc(Nc2ccccc2)nc(Nc2ccc(F)cc2)n1 (hydrate or solvate)
4. C[C@H](CO)Nc1nc(Nc2ccccc2)nc(Nc2ccc(F)cc2)n1 (as salt: HCl)

["214 to 215 °C", "171 to 174 °C", "188 to 189 °C", "193 to 195 °C"]

----------
Target: BEC 1 potassium channel (Homo sapiens, UniProt Q9ULD8)
Assay: BEC 1 inhibitory activity using released amount of 86Rb ions from BEC 1-expressing cells
Conditions: 86Rb ion release, BEC 1-stably expressing CHO (dhfr-deficient) cell, 100 mM KCl stimulation; read-out: BEC1 IC50
value_type: log10 IC50 (log10 of the value in nM)
Log10 applied to IC50; unit prior to transform: nM.

CC(C)Nc1nc(Nc2ccccc2)nc(Nc2ccc(Cl)cc2)n1: 2.69

Dear colleague, could you send me log10 IC50 for each of the items below? Thanks.
1. CONc1nc(Nc2ccccc2)nc(Nc2ccc(F)cc2)n1
2. CC(C)Nc1nc(Nc2ccccc2)nc(Nc2ccc(F)cc2)n1.Cl [compound 45, hydrochloride]
3. Fc1ccc(Nc2nc(NCc3ccnc(F)c3)nc(Nc3ccc(Cl)cc3)n2)cc1
4. Fc1ccc(Nc2nc(NCc3ccco3)nc(Nc3ccccc3)n2)cc1

1. 3.98
2. 2.34
3. 2.81
4. 1.67

----------
Would you kindly list pIC50 for each of these molecules?
Biological target: BEC 1 potassium channel (Homo sapiens)
Assay: BEC 1 inhibitory activity using released amount of 86Rb ions from BEC 1-expressing cells
Details: 86Rb ion release, BEC 1-stably expressing CHO (dhfr-deficient) cell, 100 mM KCl stimulation; read-out: BEC1 IC50
One number for each entry, as −log10 of the molar value.

See these solved cases before continuing.
CC(C)Nc1nc(Nc2ccccc2)nc(Nc2ccc(C(F)(F)F)cc2)n1 [Ex 49]: 6.85
OCCNc1nc(Nc2ccccc2)nc(Nc2ccc(F)cc2)n1 [Example 773]: 5.82

Dear colleague, could you send me pIC50 for each of the items below? Thanks.
1. OCCOCCNc1nc(Nc2ccccc2)nc(Nc2ccc(F)cc2)n1 [Example 777]
2. c1ccc(Nc2nc(NCC3CCOCC3)nc(Nc3ccccc3)n2)cc1 [Example 741]
3. CSCCCNc1nc(Nc2ccccc2)nc(Nc2ccccc2)n1 [compound 19]
4. Fc1ccc(Nc2nc(NCC3CCCO3)nc(Nc3ccc(F)cc3)n2)cc1 (stereo not drawn) [compound 36]

1: 6.68; 2: 6.28; 3: 5.89; 4: 6.32

----------
Molecular target: UniProtKB Q9ULD8
Sequence (Q9ULD8 1-1083): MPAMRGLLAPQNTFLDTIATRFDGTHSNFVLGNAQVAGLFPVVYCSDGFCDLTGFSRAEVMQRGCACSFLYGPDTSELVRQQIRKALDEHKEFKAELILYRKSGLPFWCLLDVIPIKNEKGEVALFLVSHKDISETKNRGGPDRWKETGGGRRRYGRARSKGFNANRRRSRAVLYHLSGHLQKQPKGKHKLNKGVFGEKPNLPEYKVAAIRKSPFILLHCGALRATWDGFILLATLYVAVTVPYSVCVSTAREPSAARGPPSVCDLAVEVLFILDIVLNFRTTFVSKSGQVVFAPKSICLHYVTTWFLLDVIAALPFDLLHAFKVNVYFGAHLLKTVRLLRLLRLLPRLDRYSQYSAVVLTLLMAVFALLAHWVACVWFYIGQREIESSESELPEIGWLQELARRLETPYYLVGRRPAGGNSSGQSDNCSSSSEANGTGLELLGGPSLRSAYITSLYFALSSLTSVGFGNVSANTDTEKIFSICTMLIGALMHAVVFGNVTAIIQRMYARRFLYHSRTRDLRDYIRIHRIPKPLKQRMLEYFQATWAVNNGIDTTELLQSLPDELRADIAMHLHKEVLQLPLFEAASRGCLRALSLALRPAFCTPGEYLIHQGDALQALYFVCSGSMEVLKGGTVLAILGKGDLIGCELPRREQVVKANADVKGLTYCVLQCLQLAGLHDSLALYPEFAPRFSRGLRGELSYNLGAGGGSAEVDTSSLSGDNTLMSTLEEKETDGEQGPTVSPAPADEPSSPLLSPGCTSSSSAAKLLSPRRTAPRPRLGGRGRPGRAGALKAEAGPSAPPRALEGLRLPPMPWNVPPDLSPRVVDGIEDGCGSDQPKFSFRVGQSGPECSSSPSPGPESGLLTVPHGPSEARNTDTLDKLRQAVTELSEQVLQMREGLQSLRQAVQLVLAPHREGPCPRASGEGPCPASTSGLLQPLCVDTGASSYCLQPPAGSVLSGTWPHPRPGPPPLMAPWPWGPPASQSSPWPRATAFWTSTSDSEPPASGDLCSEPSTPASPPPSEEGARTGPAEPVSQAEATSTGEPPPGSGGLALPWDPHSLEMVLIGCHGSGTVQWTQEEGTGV
Test: BEC 1 inhibitory activity using released amount of 86Rb ions from BEC 1-expressing cells
Details: 86Rb ion release, BEC 1-stably expressing CHO (dhfr-deficient) cell, 100 mM KCl stimulation; read-out: BEC1 IC50
Mark each entry Yes if its IC50 sits below 200 nM, and No for all others.

COCCNc1nc(Nc2ccc(F)cc2)nc(Nc2ccc(F)cc2)n1: No
Fc1ccc(Nc2nc(NCc3ccnc(F)c3)nc(Nc3ccc(F)cc3)n2)cc1: Yes

For OCCCNc1nc(Nc2ccccc2)nc(Nc2ccc(F)cc2)n1 , is the recorded IC50 below the cut-off of 200 nM?
No

For C#CCNc1nc(Nc2ccccc2)nc(Nc2ccccc2)n1 , is the recorded IC50 below the cut-off of 200 nM?
No

For CC(CCCC(C)(C)O)Nc1nc(Nc2ccccc2)nc(Nc2ccccc2)n1 (centres unmarked) , is the recorded IC50 below the cut-off of 200 nM?
No
